System: MDA-MB-231 (human mammary adenocarcinoma) cell line
Test protocol: sulforhodamine B (SRB) cytotoxicity assay on MDA-MB-231
Format: cell-based
Condition context: mean ± SE of three or four assays, incubation 72 h, 48 h exposure
Give measured pIC50 for each item. Keep answers brief.
One number for each entry, as −log10 of the molar value.

Solved entries (count: 6):
{"Molecule": "CCC[CH2][Sn]1([CH2]CCC)[O]c2cc(C)oc(=O)c2C(C)=NN=C(N)[S]1", "pIC50": 6.92}
{"Molecule": "CCCCCCC[CH2][Sn]1([CH2]CCCCCCC)[O]c2cc(C)oc(=O)c2C(C)=NN=C(NC)[S]1", "pIC50": 5.48}
{"Molecule": "CC1=NN=C(N)[S][Sn]([CH2][Si](C)(C)C)([CH2][Si](C)(C)C)[O]c2cc(C)oc(=O)c21", "pIC50": 7.38}
{"Molecule": "CC1=NN=C(N)[S][Sn]([c]2ccccc2)([c]2ccccc2)[O]c2cc(C)oc(=O)c21", "pIC50": 6.77}
{"Molecule": "CC1=NN=C(N)[S][Sn]([CH]2CCCCC2)([CH]2CCCCC2)[O]c2cc(C)oc(=O)c21", "pIC50": 6.92}
{"Molecule": "CCCCCCC[CH2][Sn]1([CH2]CCCCCCC)[O]c2cc(C)oc(=O)c2C(C)=NN=C(Nc2ccccc2)[S]1", "pIC50": 6.27}

Working through the 5 molecules below one at a time, give pIC50 for each.
1. CC1=NN=C(CN)[S][Sn]([CH2][Si](C)(C)C)([CH2][Si](C)(C)C)[O]c2cc(C)oc(=O)c21
2. N.N.[Cl][Pt][Cl] [Cisplatin, reference compound]
3. CCC[CH2][Sn]1([CH2]CCC)[O]c2cc(C)oc(=O)c2C(C)=NN=C(CN)[S]1
4. CC1=NN=C(CN)[S][Sn]([CH]2CCCCC2)([CH]2CCCCC2)[O]c2cc(C)oc(=O)c21
5. CC1=NN=C(CN)[S][Sn]([c]2ccccc2)([c]2ccccc2)[O]c2cc(C)oc(=O)c21

1. 6.92
2. 4.56
3. 6.51
4. 7.06
5. 5.99

Working through the 3 molecules below one at a time, give pIC50 for each.
1. CCC[CH2][Sn]1([CH2]CCC)[O]c2cc(C)oc(=O)c2C(C)=NN=C(Nc2ccccc2)[S]1
2. CCCCCCC[CH2][Sn]1([CH2]CCCCCCC)[O]c2cc(C)oc(=O)c2C(C)=NN=C(N)[S]1
3. CC1=NN=C(Nc2ccccc2)[S][Sn]([c]2ccccc2)([c]2ccccc2)[O]c2cc(C)oc(=O)c21

1. 7.00
2. 4.96
3. 6.31

Working through the 2 molecules below one at a time, give pIC50 for each.
1. CC1=NN=C(Nc2ccccc2)[S][Sn]([CH2][Si](C)(C)C)([CH2][Si](C)(C)C)[O]c2cc(C)oc(=O)c21
2. CC1=NN=C(Nc2ccccc2)[S][Sn]([CH]2CCCCC2)([CH]2CCCCC2)[O]c2cc(C)oc(=O)c21

[6.85, 7.15]

###

System: MDA-MB-231 cell line
Test protocol: morphological changes, Giemsa stain light microscopy, MDA-MB-231
Format: cell-based, human
Condition context: 48 h treatment
Measurement label: morphological alterations MDA-MB-231

{"Compound": "CC1=NN=C(N)[S][Sn]([c]2ccccc2)([c]2ccccc2)[O]c2cc(C)oc(=O)c21", "Tested system": "MDA-MB-231 cell line", "Result": "Cell density decreased"}
{"Compound": "CCC[CH2][Sn]1([CH2]CCC)[O]c2cc(C)oc(=O)c2C(C)=NN=C(N)[S]1", "Tested system": "MDA-MB-231 cell line", "Result": "Cell density decreased"}
